GI50 for assorted compounds
system: OVCAR-5; experiment: NCI tumour cell line growth inhibition, 48 h
Calls of active or inactive are those of the source. Cut-off read from the data, not from the text of the source: active = GI50 up to about 1.1 µM and inactive = higher.

# compound, GI50
data = [
    ("COc1ccc(C2SC(=N)Nc3c2c(C)nn3C(=O)c2ccccc2O)cc1OC (stereo unspecified)", "> 10 µM (inactive)"),
]

Asked: Fill in: GI50 of `CN(CCO)CC(=O)CC(O)(C(F)(F)F)C(F)(F)F` is ___
Given back: 52.5 µM (inactive)

Asked: Next: O=C1OC(CN2CCOCC2)CN1/N=C/c1ccc([N+](=O)[O-])o1 (stereo unspecified)
Given back: 61.5 µM (inactive)

Asked: Next: `Cc1nn(C)c(=O)c2nn(-c3ccccc3)c(C)c12`
Given back: > 100 µM (inactive)

Asked: Next: `COc1ccc(CN=C(N)N)c2ccccc12`
Given back: 22.8 µM (inactive)

Asked: Next: O=C1CCC2CCOc3ccc(O)c1c32 (stereo unspecified)
Given back: > 100 µM (inactive)

Data origin: ChEMBL document CHEMBL1201862
